# System: SK-MEL-5 melanoma
# PROTOCOL_NOTES: NCI tumour cell line growth inhibition, 48 h
Assign satisfied whenever TGI does not fall below 3 µM; assign not satisfied whenever it does.

The examples below pair each entry with its known result.
COc1cc2c(c(OC)c1OC)-c1ccc(SC)c(=O)cc1C(CC(=O)Oc1cccc(C#N)c1)C2 (stereo not given) | satisfied
Oc1ccc(CN(Cc2ccc(C(F)(F)F)cc2)Cc2ccc(O)c3ncccc23)c2cccnc12 | not satisfied
Cc1ccc(C[P+](c2ccccc2)(c2ccccc2)c2ccccc2)cc1 | not satisfied
CCC[CH2][Sn]1([CH2]CCC)[O]C(=O)CN=Cc2ccccc2[O]1 | satisfied
Cc1ccc2[nH]c(C(=O)NN3C(=O)C(C)SC34CCCCC4C)c(-c3ccccc3)c2c1 (stereo not given) | satisfied

Inquiry: Could you tell me if the measured TGI of `O=[N+]([O-])c1cccc(-c2cc(-c3cc(Br)ccc3O)[nH]n2)c1` reaches 3 µM or more?
Reply text: satisfied

Inquiry: Could you tell me if the measured TGI of `CCOC(=O)C(=Cn1c(=S)[nH]c2ccc([N+](=O)[O-])cc21)C(=O)OCC` reaches 3 µM or more?
Reply text: satisfied

Inquiry: Could you tell me if the measured TGI of `COc1ccc(C2=CN3CCC[C@H]3C=C2c2cc(O)c(OC)c(OC)c2)cc1OC` reaches 3 µM or more?
Reply text: not satisfied

Inquiry: Could you tell me if the measured TGI of `CCC(=O)c1ccc2c(c1)N(CCCN1CCN(CCO)CC1)c1ccccc1S2` reaches 3 µM or more?
Reply text: satisfied

# credit: PubChem BioAssay (NCI)
